Can you tell me pIC50 for the items I'm about to list?
assay-system: FAS (Rattus norvegicus, UniProt P12785)
Construct: Cytosolic hepatic extracts obtained from rat (210 µg) were preincubated at 30 °C for 30 min; from tissue; host or cells: rat liver (cytosolic, FAS-enriched hepatic extract)
Sequence (P12785 whole entry): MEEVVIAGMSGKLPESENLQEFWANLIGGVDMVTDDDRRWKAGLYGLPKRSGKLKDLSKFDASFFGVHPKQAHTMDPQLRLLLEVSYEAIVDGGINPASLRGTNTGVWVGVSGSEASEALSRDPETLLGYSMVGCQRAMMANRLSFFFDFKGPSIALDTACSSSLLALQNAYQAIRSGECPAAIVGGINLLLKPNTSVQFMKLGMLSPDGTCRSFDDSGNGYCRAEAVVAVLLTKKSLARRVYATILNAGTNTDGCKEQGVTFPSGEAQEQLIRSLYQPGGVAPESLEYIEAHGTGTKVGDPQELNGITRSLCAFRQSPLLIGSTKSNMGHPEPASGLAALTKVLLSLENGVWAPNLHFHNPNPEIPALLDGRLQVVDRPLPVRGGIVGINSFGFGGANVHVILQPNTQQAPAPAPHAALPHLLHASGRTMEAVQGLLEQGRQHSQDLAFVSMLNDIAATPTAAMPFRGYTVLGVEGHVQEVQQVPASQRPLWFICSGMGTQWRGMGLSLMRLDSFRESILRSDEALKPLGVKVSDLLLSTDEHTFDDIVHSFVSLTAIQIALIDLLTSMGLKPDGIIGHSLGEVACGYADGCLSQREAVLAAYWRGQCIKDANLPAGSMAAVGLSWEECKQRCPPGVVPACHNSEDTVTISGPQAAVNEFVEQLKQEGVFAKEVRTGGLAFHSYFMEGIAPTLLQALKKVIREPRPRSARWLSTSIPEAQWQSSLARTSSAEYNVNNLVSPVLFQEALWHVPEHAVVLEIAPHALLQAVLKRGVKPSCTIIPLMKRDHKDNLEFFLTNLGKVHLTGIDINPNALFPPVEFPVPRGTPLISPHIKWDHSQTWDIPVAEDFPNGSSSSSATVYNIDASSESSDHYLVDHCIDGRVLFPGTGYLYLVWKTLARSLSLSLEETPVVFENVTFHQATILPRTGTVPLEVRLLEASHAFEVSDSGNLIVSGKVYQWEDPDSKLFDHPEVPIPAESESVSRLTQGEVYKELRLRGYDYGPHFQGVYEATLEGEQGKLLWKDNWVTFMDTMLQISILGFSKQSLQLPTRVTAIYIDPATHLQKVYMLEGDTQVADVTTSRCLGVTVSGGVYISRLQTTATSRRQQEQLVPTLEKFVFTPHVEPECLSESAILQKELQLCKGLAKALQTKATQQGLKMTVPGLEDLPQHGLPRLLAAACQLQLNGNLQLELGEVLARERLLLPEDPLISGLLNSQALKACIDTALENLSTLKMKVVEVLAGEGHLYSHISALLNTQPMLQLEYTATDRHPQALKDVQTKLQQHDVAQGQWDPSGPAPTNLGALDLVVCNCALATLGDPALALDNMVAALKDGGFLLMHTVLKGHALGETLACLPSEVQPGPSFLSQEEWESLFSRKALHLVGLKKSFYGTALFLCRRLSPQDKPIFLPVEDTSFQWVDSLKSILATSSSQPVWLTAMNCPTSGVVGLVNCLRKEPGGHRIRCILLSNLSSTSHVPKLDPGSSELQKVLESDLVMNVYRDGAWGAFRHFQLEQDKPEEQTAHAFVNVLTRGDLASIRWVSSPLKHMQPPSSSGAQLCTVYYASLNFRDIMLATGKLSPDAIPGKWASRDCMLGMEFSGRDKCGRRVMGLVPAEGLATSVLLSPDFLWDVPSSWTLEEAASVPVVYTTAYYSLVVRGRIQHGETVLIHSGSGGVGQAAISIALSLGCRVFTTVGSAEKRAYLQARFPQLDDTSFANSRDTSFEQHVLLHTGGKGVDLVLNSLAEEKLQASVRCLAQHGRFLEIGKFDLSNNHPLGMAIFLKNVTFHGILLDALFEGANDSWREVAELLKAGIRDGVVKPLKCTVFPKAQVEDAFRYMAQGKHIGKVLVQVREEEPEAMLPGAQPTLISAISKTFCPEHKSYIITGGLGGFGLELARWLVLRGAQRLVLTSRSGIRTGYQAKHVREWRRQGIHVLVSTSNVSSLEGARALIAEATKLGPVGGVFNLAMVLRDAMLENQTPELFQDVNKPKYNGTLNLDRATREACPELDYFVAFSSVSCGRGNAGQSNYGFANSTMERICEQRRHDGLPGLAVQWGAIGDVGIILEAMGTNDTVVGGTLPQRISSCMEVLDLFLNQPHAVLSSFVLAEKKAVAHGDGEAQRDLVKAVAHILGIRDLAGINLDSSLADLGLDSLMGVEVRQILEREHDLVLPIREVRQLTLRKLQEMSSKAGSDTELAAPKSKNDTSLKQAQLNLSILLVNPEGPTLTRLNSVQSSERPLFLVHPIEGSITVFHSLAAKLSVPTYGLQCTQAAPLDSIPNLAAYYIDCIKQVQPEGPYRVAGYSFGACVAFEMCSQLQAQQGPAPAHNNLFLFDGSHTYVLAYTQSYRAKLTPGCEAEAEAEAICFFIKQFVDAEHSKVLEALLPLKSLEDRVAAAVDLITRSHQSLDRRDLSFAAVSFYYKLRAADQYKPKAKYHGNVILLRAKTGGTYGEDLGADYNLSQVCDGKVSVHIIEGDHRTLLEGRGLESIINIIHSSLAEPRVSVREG
test-summary: Spectrophotometric FAS activity assay in rat liver extracts
Type: biochemical
recorded-conditions: rat liver extracts (210 µg), preincubated 30 min at 30 °C, mean ± SEM of three experiments
Numbers only, as −log10 of the molar value.

C=C1C(=O)O[C@@H](CCCCCCCC)[C@H]1C(O)C(O)CO (mixture of isomers) [(±)-UB036] | 3.34

Turning now to a further molecule:
Query :: Any idea what pIC50 was measured for C=C1C(=O)O[C@@H](CCCCCCCC)[C@H]1[C@@H](O)CO (racemic) [(±)-UB035] ?
Result :: 3.25

---

test-summary: Turbidimetry solubility assay
Assay type: physicochemical
recorded-conditions: kinetic from dmso stock, water with 1% DMSO, 2 h at 37 °C, tested 25 μM–2 mM
Can you tell me solubility at 2 h for the items I'm about to list?
Numbers only, in µM.

Solved entries (count: 3):
C=C1C(=O)O[C@@H](CCCCCCCC)[C@H]1C(C)O (mixture of isomers) [(±)-UB031] | 473
C=C1C(=O)O[C@@H](CCCCCCCC)[C@H]1C(O)CC (mixture of isomers) [(±)-UB032] | 390
C=C1C(=O)O[C@@H](CCCCCCCC)[C@H]1C(O)CCCCCC (mixture of isomers) [(±)-UB033] | 76

Hello, I would appreciate it if you could give solubility at 2 h for each entry below.
1. C=CC(O)[C@H]1C(=C)C(=O)O[C@H]1CCCCCCCC (mixture of isomers) [(±)-UB034]
2. C=C1C(=O)O[C@@H](CCCCCCCC)[C@@H]1CO (racemic) [(±)-UB006]

Result ::
[88, 550]
